system: Escherichia coli TOP10; experiment: shrunken log2 fold change of peptide-encoding DNA abundance (4.5 h post-induction vs induction); higher = less antimicrobial activity (less host growth inhibition); details: time post-induction: 4.5 h; library: site-saturation at positions 5, 18, 19, 20
REPORTED PROPERTY: shrunken log2 fold change

RRIRWRPPRLPRPRPRPTDVPRP    -0.283

Record `RRIRERPPRLPRPRPRPKQQPRP` : what is its shrunken log2 fold change with Escherichia coli TOP10?
-0.0499

Next up: `RRIRWRPPRLPRPRPRPPPIPRP`
0.574

###

test system: Escherichia coli TOP10; assay: shrunken log2 fold change of peptide-encoding DNA abundance (4.5 h post-induction vs induction); higher = less antimicrobial activity (less host growth inhibition); conditions: time post-induction: 4.5 h; library: site-saturation at positions 5, 18, 19, 20
Classification by shrunken log2 fold change follows these ranges: Low: < -0.09; Medium: ≥ -0.09 and < 0.1; High: ≥ 0.1

Classify this sequence: `RRIRTRPPRLPRPRPRPTKVPRP`
Low

###

system: Escherichia coli TOP10; experiment: shrunken log2 fold change of peptide-encoding DNA abundance (4.5 h post-induction vs induction); higher = less antimicrobial activity (less host growth inhibition); settings: time post-induction: 4.5 h; library: site-saturation at positions 5, 18, 19, 20
REPORTED PROPERTY: shrunken log2 fold change

Example entries and their recorded answers appear below.
RRIRRRPPRLPRPRPRPNGEPRP    0.43
RRIRRRPPRLPRPRPRPYYNPRP    -0.807
RRIRNRPPRLPRPRPRPVQSPRP    0.00489
RRIRERPPRLPRPRPRPRLVPRP    -0.0143
RRIRHRPPRLPRPRPRPHGFPRP    -0.0127
RRIRLRPPRLPRPRPRPQWYPRP    -0.426

Bench note: what shrunken log2 fold change did `RRIRDRPPRLPRPRPRPSDTPRP` show?
-0.343

Next up: `RRIRPRPPRLPRPRPRPPFYPRP`
0.0888

Next up: `RRIRHRPPRLPRPRPRPDTHPRP`
-1.19

###

test system: Escherichia coli TOP10; assay: shrunken log2 fold change of peptide-encoding DNA abundance (4.5 h post-induction vs induction); higher = less antimicrobial activity (less host growth inhibition); details: time post-induction: 4.5 h; library: site-saturation at positions 5, 18, 19, 20
Criterion: shrunken log2 fold change meeting or surpassing -0.09. Met: condition met. Not met: condition not met.

RRIRPRPPRLPRPRPRPSGLPRP    condition not met

API: the following record is the query input.
Is the recorded value of shrunken log2 fold change equal to or greater than -0.09 for this sequence? `RRIRHRPPRLPRPRPRPVVNPRP`
condition met

###

Listed next: entries and their corresponding shrunken log2 fold change.
tested on: Escherichia coli TOP10; assay: shrunken log2 fold change of peptide-encoding DNA abundance (4.5 h post-induction vs induction); higher = less antimicrobial activity (less host growth inhibition); conditions: time post-induction: 4.5 h; library: site-saturation at positions 5, 18, 19, 20;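 note: peptides expressed intracellularly from a pBAD plasmid library in pooled LB shake-flask culture, induced with 0.3% L-arabinose, DNA abundance read by NGS, three biological replicates, DESeq2 with apeglm shrinkage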
Reply with just the number.

Example entries and their recorded answers appear below.
RRIRPRPPRLPRPRPRPVRFPRP    0.28
RRIRRRPPRLPRPRPRPLVRPRP    0.033
RRIRERPPRLPRPRPRPDFVPRP    0.105

Bench note: what shrunken log2 fold change did `RRIRMRPPRLPRPRPRPHNTPRP` show?
-0.168

Next up: `RRIRRRPPRLPRPRPRPSWGPRP`
-0.0778

Next up: `RRIRVRPPRLPRPRPRPNWSPRP`
-0.114

Next up: `RRIRKRPPRLPRPRPRPEVWPRP`
0.951

Next up: `RRIRNRPPRLPRPRPRPYKKPRP`
-0.00559

Next up: `RRIRSRPPRLPRPRPRPWTNPRP`
-0.0183

The measurements presented in this section are drawn from the supplement of paper PMC9112550.
